Ref: ChEMBL document CHEMBL4689842

system: HEK-293T; assay: Multiplex assay against HEK293T; type: toxicity, cell-based; details: human, 12 h, 10 µM, compound concentration 10 uM, replicate 1
# Population Hoechst High Intensity Objects (%) per entry
Report as a plain number; the unit % is understood.

Answered examples (7):
- MOLECULE: "Cc1nc(-c2cn3c(n2)-c2ccc(-c4cnn(C(C)(C)C(N)=O)c4)cc2OCC3)n(C(C)C)n1 [TASELISIB]"
  UNIT NAME: "%"
  VALUE MEASURED: 12
- MOLECULE: "CC(C)NCC(O)COc1ccc(CCOCC2CC2)cc1.Cl (stereo not drawn) [BETAXOLOL HYDROCHLORIDE]"
  UNIT NAME: "%"
  VALUE MEASURED: 13
- MOLECULE: "CN(C)C(=O)/C(C#N)=C/c1ccc(-c2nc3cnc4[nH]ccc4c3n2C2CCCCC2)o1"
  UNIT NAME: "%"
  VALUE MEASURED: 37
- MOLECULE: "C[C@@H](NCCCc1cccc(C(F)(F)F)c1)c1cccc2ccccc12.Cl [CINACALCET HYDROCHLORIDE]"
  UNIT NAME: "%"
  VALUE MEASURED: 19
- MOLECULE: "Cl.N#Cc1ccc2[nH]cc(CCCCN3CCN(c4ccc5oc(C(N)=O)cc5c4)CC3)c2c1 [VILAZODONE HYDROCHLORIDE]"
  UNIT NAME: "%"
  VALUE MEASURED: 25
- MOLECULE: "CC[C@H](C)C(=O)O[C@H]1C[C@@H](C)C=C2C=C[C@H](C)[C@H](CC[C@@H]3C[C@@H](O)CC(=O)O3)[C@H]21 [LOVASTATIN]"
  UNIT NAME: "%"
  VALUE MEASURED: 14
- MOLECULE: "CN(C)C(=O)N[C@H]1CC[C@H](CCN2CCN(c3cccc(Cl)c3Cl)CC2)CC1.Cl [CARIPRAZINE HYDROCHLORIDE]"
  UNIT NAME: "%"
  VALUE MEASURED: 15

# ---- query molecule ----
Q: Name the recorded Population Hoechst High Intensity Objects (%) of the molecule listed here: COc1ncc(-c2ccc3nccc(-c4ccnnc4)c3c2)cc1NS(=O)(=O)c1ccc(F)cc1F [OMIPALISIB]
Ans: 22

---

tested on: Fibroblast; test: Multiplex assay against human fibroblast; format: toxicity, cell-based; settings: 24 h, 1 µM, compound concentration 1 uM, replicate 2
Catalogue of Population Membrane Permeable-Phenotype (%) values
// return numeric value only (unit: %, not printed)

- COMPOUND: "CNCc1ccc(-c2cc(-c3nc(-c4ccc(S(=O)(=O)C(C)C)cc4)cnc3N)on2)cc1 [BERZOSERTIB]"
  UNIT NAME: "%"
  VALUE MEASURED: 25
- COMPOUND: "CN1CCC[C@@H]1CCO[C@](C)(c1ccccc1)c1ccc(Cl)cc1.O=C(O)/C=C/C(=O)O [CLEMASTINE FUMARATE]"
  UNIT NAME: "%"
  VALUE MEASURED: 5
- COMPOUND: "CNc1nc(NCc2ccc(NS(C)(=O)=O)cc2Cl)cc(-c2ccccn2)n1"
  UNIT NAME: "%"
  VALUE MEASURED: 0

Q: Indicate its recorded Population Membrane Permeable-Phenotype (%); the compound in question is C[C@@H](NCCCc1cccc(C(F)(F)F)c1)c1cccc2ccccc12.Cl [CINACALCET HYDROCHLORIDE]
Ans: 5

Q: Consider the compound `OC1(c2ccc(Cl)cc2)CCN(Cc2c[nH]c3ccccc23)CC1` . State its measured Population Membrane Permeable-Phenotype (%).
Ans: 4

Q: For the compound COc1cccc([C@@H](C)NCCCc2ccccc2Cl)c1.Cl [TECALCET HYDROCHLORIDE] , give its reported Population Membrane Permeable-Phenotype (%).
Ans: 6

Q: Identify the reported Population Membrane Permeable-Phenotype (%) for the following entry. CN(C)CC#Cc1ccc(OCCCc2sc(N3CCc4cccc(C(=O)Nc5nc6ccccc6s5)c4C3)nc2C(=O)O)c(F)c1 [A-1155463]
Ans: 13

---

tested on: HEK-293T; test: Multiplex assay against HEK293T; assay type: toxicity, cell-based; conditions: human, 48 h, 1 µM, compound concentration 1 uM, replicate 2
MEASUREMENT NAME: Total Cell Count
Output: the number by itself.

Recorded results for 8 molecules are shown here.
- MOLECULE: "OC1(c2ccc(Cl)cc2)CCN(Cc2c[nH]c3ccccc23)CC1"
  TARGET ENTITY: "HEK-293T"
  Total Cell Count: 264
- MOLECULE: "c1cn2cc(-c3ccc4cn[nH]c4c3)nc(Nc3ccc(N4CCOCC4)cc3)c2n1"
  TARGET ENTITY: "HEK-293T"
  Total Cell Count: 378
- MOLECULE: "O=C1NCN(c2ccccc2)C12CCN(CCCOc1ccc(F)cc1)CC2 [SPIRAMIDE]"
  TARGET ENTITY: "HEK-293T"
  Total Cell Count: 363
- MOLECULE: "CNc1nc(NCc2ccc(NS(C)(=O)=O)cc2Cl)cc(-c2ccccn2)n1"
  TARGET ENTITY: "HEK-293T"
  Total Cell Count: 601
- MOLECULE: "Cc1cc(C)cc(-c2cnc3cc(Cl)c(-c4cccc(O)c4)cc3c2OCCCN)c1"
  TARGET ENTITY: "HEK-293T"
  Total Cell Count: 406
- MOLECULE: "C=CC(=O)Nc1cccc(C(=O)Nc2ccc(Nc3cc(-c4[nH]c(SC)nc4C)ccn3)cc2)c1"
  TARGET ENTITY: "HEK-293T"
  Total Cell Count: 435
- MOLECULE: "Cc1csc2c(N[C@@H](C)CN3CCN(S(=O)(=O)c4ccc(Cl)c(Cl)c4)CC3)ncnc12"
  TARGET ENTITY: "HEK-293T"
  Total Cell Count: 159
- MOLECULE: "CC(C)NCC(O)COc1ccc(CCOCC2CC2)cc1.Cl (stereo unspecified) [BETAXOLOL HYDROCHLORIDE]"
  TARGET ENTITY: "HEK-293T"
  Total Cell Count: 601

Q: Given the molecule `Cn1cc(-c2[nH]c3cc(NC(=O)[C@H](N)C4CCCCC4)cc4c3c2C=NNC4=O)cn1` , write its reported Total Cell Count.
Ans: 278

Q: Provide Total Cell Count value for the following molecule: `CC[C@H](C)C(=O)O[C@H]1C[C@@H](C)C=C2C=C[C@H](C)[C@H](CC[C@@H]3C[C@@H](O)CC(=O)O3)[C@H]21`
Ans: 588

Q: State its Total Cell Count for this molecule: `COc1cc(-n2cnc3cc(-c4ccc(Cl)cc4)sc3c2=O)ccc1OCCN1CCCC1`
Ans: 539

Q: Return Total Cell Count (reported value) for this molecule: `CN(C)C(=O)/C(C#N)=C/c1ccc(-c2nc3cnc4[nH]ccc4c3n2C2CCCCC2)o1`
Ans: 389

Q: Let me know recorded Total Cell Count for CN1CCCC(n2nc(Cc3ccc(Cl)cc3)c3ccccc3c2=O)CC1.Cl (stereo unspecified) [AZELASTINE HYDROCHLORIDE] , thanks.
Ans: 324

Q: Consider the molecule `CN1CCN(CCOc2cc(OC3CCOCC3)c3c(Nc4c(Cl)ccc5c4OCO5)ncnc3c2)CC1` and give its recorded Total Cell Count.
Ans: 315

Q: Please give the documented Total Cell Count of `CC(C)(O)CNc1ncc(-c2ccnc(Nc3ccnc(Cl)c3)n2)c(CC2CC2)n1`
Ans: 209

Q: Give me measured Total Cell Count, please, for this molecule: `CN(C)CC#Cc1ccc(OCCCc2sc(N3CCc4cccc(C(=O)Nc5nc6ccccc6s5)c4C3)nc2C(=O)O)c(F)c1`
Ans: 397

---

Entries and their Population Hoechst High Intensity Objects (%)
tested on: U2OS; test: Multiplex assay against U2OS; format: toxicity, cell-based; conditions: human, 12 h, 1 µM, compound concentration 1 uM, replicate 1
The response must be a number in % with no trailing unit.

Use the examples below as a reference point.
- MOLECULE: "C=CC(=O)Nc1cc2c(Nc3ccc(F)c(Cl)c3)ncnc2cc1OCCCN1CCOCC1.Cl.Cl [CANERTINIB DIHYDROCHLORIDE]"
  VALUE MEASURED: 5
- MOLECULE: "C=CC(=O)Nc1cccc(C(=O)Nc2ccc(Nc3cc(-c4[nH]c(SC)nc4C)ccn3)cc2)c1"
  VALUE MEASURED: 8

As a next step, examine the molecule that follows.
Q: // fetch Population Hoechst High Intensity Objects (%) for `CN1CCN(c2ccc(OC(F)(F)F)c(Nc3ncc4c(n3)-c3c(c(C(N)=O)nn3CCO)CC4)c2)CC1` ; system: U2OS
Ans: 6

---

test system: U2OS; assay: Multiplex assay against U2OS; type: toxicity, cell-based; details: human, 48 h, 10 µM, compound concentration 10 uM, replicate 1
MEASUREMENT NAME: Population Apoptotic (%)
// note: answer is a bare numeric in %

- COMPOUND: "COc1ncc(-c2ccc3nccc(-c4ccnnc4)c3c2)cc1NS(=O)(=O)c1ccc(F)cc1F [OMIPALISIB]"
  TARGET ENTITY: "U2OS"
  Population Apoptotic (%): 83
- COMPOUND: "C[C@@]1(C(=O)Nc2ccc(F)nc2)CCCN1c1nc(Nc2cc(C3CC3)n[nH]2)c2cccn2n1 [BMS-754807]"
  TARGET ENTITY: "U2OS"
  Population Apoptotic (%): 72

Q: Return the recorded Population Apoptotic (%) value; entry: `CN(C)C(=O)/C(C#N)=C/c1ccc(-c2nc3cnc4[nH]ccc4c3n2C2CCCCC2)o1`
Ans: 39
